Molecular target: T1, Mutant 4 of human SPNS2 (FLAG tag inserted in extracellular loop 11) (human, UniProt Q8IVW8 1-549)
T1 construct: on HEK293 cells; also called extracellular loop 11 mutant
T1 sequence: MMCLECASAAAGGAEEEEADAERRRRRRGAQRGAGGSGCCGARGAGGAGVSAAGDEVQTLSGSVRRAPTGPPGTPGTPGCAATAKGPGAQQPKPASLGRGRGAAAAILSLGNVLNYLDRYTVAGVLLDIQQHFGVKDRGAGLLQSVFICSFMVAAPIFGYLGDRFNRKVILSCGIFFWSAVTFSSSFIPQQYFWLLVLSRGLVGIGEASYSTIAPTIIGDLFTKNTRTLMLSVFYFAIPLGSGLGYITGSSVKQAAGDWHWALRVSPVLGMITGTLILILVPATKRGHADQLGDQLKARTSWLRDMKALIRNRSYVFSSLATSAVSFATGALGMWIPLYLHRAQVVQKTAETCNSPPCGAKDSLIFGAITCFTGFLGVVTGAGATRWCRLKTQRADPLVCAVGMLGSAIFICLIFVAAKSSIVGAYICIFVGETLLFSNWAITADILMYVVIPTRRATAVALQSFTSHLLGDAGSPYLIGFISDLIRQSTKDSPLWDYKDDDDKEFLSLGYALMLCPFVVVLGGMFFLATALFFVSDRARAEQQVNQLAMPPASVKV
Assay: flow cytometry, FLAG-insertion mutant

binder: 89-1207D (antibody, IgG2b, V domains shown) VH: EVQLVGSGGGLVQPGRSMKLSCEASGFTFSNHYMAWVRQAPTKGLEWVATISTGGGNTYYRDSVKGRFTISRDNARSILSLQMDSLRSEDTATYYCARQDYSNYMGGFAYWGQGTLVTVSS VL: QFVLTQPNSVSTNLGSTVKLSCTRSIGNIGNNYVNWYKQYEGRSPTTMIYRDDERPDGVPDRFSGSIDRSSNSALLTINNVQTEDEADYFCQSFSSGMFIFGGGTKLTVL
FITC+/Alexa 647+ cell rate ratio: ≥ 0.5 ratio
//
binder: 82-1109A (antibody, IgG2b, V domains shown) VH: QVQLQQSGVELAKPGSSVKISCKASGNTFTSNYITWIKQTPGQGLEYIGYINTGSGKTYYNEKFKGKATLTADKSSSTAFMQLSSLTPDDSAVYFCASLTGVDYFDDWGQGVMVTVSS VL: DDIVLTQSPALAPSLGQRATISCRASQSVRMSGYNLMHWYQQKPGQQPKLLIYDASKLASGIPARFSGSGSGTDFTLTIDPVQSDDIATYYCQQSKDDPYTFGAGTKLELRR
FITC+/Alexa 647+ cell rate ratio: < 0.1 ratio
//
binder: 64-0807A (antibody, IgG2b, V domains shown) VH: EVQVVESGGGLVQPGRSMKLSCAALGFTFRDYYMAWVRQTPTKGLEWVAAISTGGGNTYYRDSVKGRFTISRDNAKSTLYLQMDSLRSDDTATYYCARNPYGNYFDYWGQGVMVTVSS VL: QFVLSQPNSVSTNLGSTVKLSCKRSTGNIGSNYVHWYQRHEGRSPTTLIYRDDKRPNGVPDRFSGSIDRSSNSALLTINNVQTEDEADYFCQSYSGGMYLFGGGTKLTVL
FITC+/Alexa 647+ cell rate ratio: ≥ 0.5 ratio
//
binder: 94-1311E (antibody, V domains shown) VH: EVQLQQSGAGLVRPRTSVRLSCKISGDSITAYYVHFVKQRPGQGLEWIGRIDPEDDSTKYSEKFKNKATLTADVSSSTAYLILSSLTSDDSATYFCSTLTGLDYWGQGVMVTVSS VL: DIQMTQSPPVLSASVGDRVTLSCKASQSVHNKLDWYQQKHGEAPKLLIYYTHNLQTGIPSRFSGSGSGSDYTLTISSLRAEDVATYYCFQYYSGWTFGGGTKLEMKR
FITC+/Alexa 647+ cell rate ratio: ≥ 0.5 ratio
//
binder: 84-1111F (antibody, IgG2b, V domains shown) VH: EVQVVESGGGLVQPGRSMKLSCAALGFTFRDYYMAWVRQTPTKGLEWVAAISTGGGNTYYRDSVKGRFTISRDNAKSTLYLKMDSLRSDDTATYYCARNPYGNYFDYWGQGVMVTVSS VL: QFVLSQPNSVSTNLGSTVKLSCKRSTGNIGSNYVHWYQRHEGRSPTTMIYRDDKRPNGVPDRFSGSIDRSSNSALLTINNVQTEDEADYFCQSYSGGMYLFGGGTTLTVL
FITC+/Alexa 647+ cell rate ratio: ≥ 0.5 ratio
